B1: CPEB3 Ribozyme (parent)
chain: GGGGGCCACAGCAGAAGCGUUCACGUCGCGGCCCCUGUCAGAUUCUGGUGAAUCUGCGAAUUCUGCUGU

Variants of: B1
Test: self-cleavage, relative activity (ratio to wild type); higher = more cleavage; co-transcriptional
Answer each item with its documented self-cleavage.
Numbers only.

Worked cases, self-cleavage given:
- Polymer Sequence: "GGGGGCCACAGCAGUAGCGUUCACGUCGCGGCCCCUGUCAGAUACUGGUGAAUCUGCGAAUUCUGCUGU [A15U U44A]"
  self-cleavage: 0.705
- Polymer Sequence: "GGGGGCCACAGCAGAAGCGUUCAGGUCGCGGCCCCUGUCAGAUUCUGGCGAAUCUGCGAAUUCUGCUGU [C24G U49C]"
  self-cleavage: 0.523

Batch lookup, self-cleavage per entry.
1. GGGGGCCACAGCAGAAGCGUUCACGUCGCGGCCCCGGUCAGAUUAUGGUGAAUCUGCGAAUUCUGCUGU [U36G C45A]
2. GGGGGCCACAGCAGAAGAGUUCACGUCGCGGCCCUUGUCAGAUUCUGGUGAAUCUGCGAAUUCUGCUGU [C18A C35U]
3. GGGGACCACAGCAGAAGCGUUCACGUCGCGGCCGCUGUCAGAUUCUGGUGAAUCUGCGAAUUCUGCUGU [G5A C34G]
4. GGGGGCCACAGCAUAAGCGUUCACGGCGCGGCCCCUGUCAGAUUCUGGUGAAUCUGCGAAUUCUGCUGU [G14U U26G]
5. GGGGGCCACAGCUGAAGCGUUCACGUCGCGGCCCCUGUCAGAUUCUGGUGAAUCUGCGAAUUCUGAUGU [A13U C66A]
6. GGGGUCCACAGCAGAAGCGUUCACGUCGCGGCCCCUGUCAGAUUCUGGUGAAUUUGCGAAUUCUGCUGU [G5U C54U]
7. GGGGGCCACAGCAGAAGCGUUCACGUCGCGGCCCCUGACAGAUUCUGGUGAAUCUGCGAAUUUUGCUGU [U38A C63U]
8. GGGGGCCACAGCAGAAGCGUUCACGUCGCGGCCCCUGUCAGAUUCUGGCGAAUCUGCGAUUUCUGCUGU [U49C A60U]

0.276
0.222
0.155
0.559
0.323
0.231
0.877
0.535

So what does the record say about self-cleavage for GAGGGCCACAGCAGAAGCGUGCACGUCGCGGCCCCUGUCAGAUUCUGGUGAAUCUGCGAAUUCUGCUGU [G2A U21G] ? 0.0545
